Biological target: PPARα (Homo sapiens)
Construct: expressed in transfected cells; host or cells: HEK293
Sequence (Q07869 239-466 limits assumed, species assumed): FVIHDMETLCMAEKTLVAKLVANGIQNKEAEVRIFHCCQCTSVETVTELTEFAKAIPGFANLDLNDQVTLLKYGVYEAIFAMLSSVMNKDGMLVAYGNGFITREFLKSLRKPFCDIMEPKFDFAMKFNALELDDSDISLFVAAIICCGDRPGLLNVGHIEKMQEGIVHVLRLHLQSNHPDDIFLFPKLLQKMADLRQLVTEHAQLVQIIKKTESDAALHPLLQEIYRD
Test: Transfection assay, GAL4-PPARα LBD luciferase reporter in HEK293 cells
Format: cell-based
Conditions: 18-24 hrs
Property name: EC50

> print(dat)
                                   compound           measured.on  result
1  O=C(O)COc1ccc2c(c1)CCN(Cc1cc(-c3ccc(C(F)(F)F)cc3)cs1)CC2  PPARα (Homo sapiens)  > 3 µM
2  CC(c1ccc(-c2ccc(C(F)(F)F)cc2)o1)N1CCc2ccc(OCC(=O)O)cc2CC1 (stereo not shown) [compound 28]  PPARα (Homo sapiens)  > 3 µM

Answer for every listed entry: what is its EC50? The entries follow.
1. O=C(O)COc1ccc2c(c1)CCN(Cc1nc(-c3ccc(C(F)(F)F)cc3)ns1)CC2
2. CC1CN(Cc2ccc(-c3ccc(C(F)(F)F)cc3)s2)CCc2ccc(OCC(=O)O)cc21 (stereo not shown)
3. O=C(O)C1(Oc2ccc3c(c2)CCN(Cc2ccc(-c4ccc(C(F)(F)F)cc4)s2)CC3)CC1
4. CC(c1ccc(-c2ccc(C(F)(F)F)cc2)s1)N1CCc2ccc(OCC(=O)O)cc2CC1 (single isomer, unassigned) [27b]
5. Cc1c(-c2ccc(C(F)(F)F)cc2)csc1CN1CCc2ccc(OCC(=O)O)cc2CC1

Response:
1: > 3 µM; 2: > 1 µM; 3: > 3 µM; 4: > 3 µM; 5: > 3 µM

Answer for every listed entry: what is its EC50? The entries follow.
1. CC(C)(Oc1ccc2c(c1)CCN(Cc1nc(-c3ccc(C(F)(F)F)cc3)ns1)CC2)C(=O)O
2. CC(c1ccc(-c2ccc(C(F)(F)F)cc2)s1)N1CCc2ccc(OCC(=O)O)cc2CC1 (single isomer, unassigned) [27a]
3. CC(c1ccc(-c2ccc(C(F)(F)F)cc2)s1)N1CCc2ccc(OCC(=O)O)cc2CC1 (racemic) [compound 27]
4. CC(C)(Oc1ccc2c(c1)CCN(Cc1ccc(-c3ccc(C(F)(F)F)cc3)o1)CC2)C(=O)O
5. Cc1c(-c2ccc(C(F)(F)F)cc2)csc1CN1CCc2ccc(OC(C)(C)C(=O)O)cc2CC1
6. O=C(O)COc1ccc2c(c1)CCN(Cc1cnc(-c3ccc(C(F)(F)F)cc3)s1)CC2
7. O=C(O)COc1ccc2c(c1)CCN(Cc1ccc(-c3ccc(C(F)(F)F)cc3)nc1)CC2

Response:
["> 3 µM", "> 3 µM", "> 3 µM", "> 3 µM", "> 3 µM", "> 1 µM", "> 1 µM"]

Answer for every listed entry: what is its EC50? The entries follow.
1. O=C(O)C1(Oc2ccc3c(c2)CCN(Cc2cnc(-c4ccc(C(F)(F)F)cc4)s2)CC3)CC1
2. COc1ccc(-c2ccc(CN3CCc4ccc(OCC(=O)O)cc4CC3)o2)cc1
3. O=C(O)C1(Oc2ccc3c(c2)CCN(Cc2ccc(-c4ccc(C(F)(F)F)cc4)o2)CC3)CC1
4. Cc1cc(-c2ccc(C(F)(F)F)cc2)sc1CN1CCc2ccc(OC(C)(C)C(=O)O)cc2CC1

Response:
1. > 1 µM
2. > 3 µM
3. 0.031 µM
4. > 3 µM

Answer for every listed entry: what is its EC50? The entries follow.
1. O=C(O)COc1ccc2c(c1)CCN(CCc1ccc(-c3ccc(C(F)(F)F)cc3)o1)CC2
2. O=C(O)COc1ccc2c(c1)CCN(Cc1ccc(-c3ccc(C(F)(F)F)cc3)cc1)CC2
3. O=C(O)COc1ccc2c(c1)CCN(Cc1cccc(-c3ccc(C(F)(F)F)cc3)c1)CC2
4. Cc1nc(-c2ccc(C(F)(F)F)cc2)oc1CN1CCc2ccc(OCC(=O)O)cc2CC1
5. CC(c1cnc(-c2ccc(C(F)(F)F)cc2)s1)N1CCc2ccc(OCC(=O)O)cc2CC1 (stereo not shown)
6. CC1CN(Cc2ccc(-c3ccc(C(F)(F)F)cc3)o2)CCc2ccc(OCC(=O)O)cc21 (stereo not shown)
7. O=C(O)COc1ccc2c(c1)CCN(CCc1ccc(-c3ccc(C(F)(F)F)cc3)s1)CC2
8. Cc1nc(-c2ccc(C(F)(F)F)cc2)sc1CN1CCc2ccc(OC(C)(C)C(=O)O)cc2CC1

Response:
["> 3 µM", "> 3 µM", "> 3 µM", "> 3 µM", "> 3 µM", "> 3 µM", "> 3 µM", "> 1 µM"]

Answer for every listed entry: what is its EC50? The entries follow.
1. O=C(O)COc1ccc2c(c1)CCN(Cc1cnn(-c3ccc(C(F)(F)F)cc3)c1)CC2
2. Cc1cc(-c2ccc(C(F)(F)F)cc2)oc1CN1CCc2ccc(OCC(=O)O)cc2CC1

Response:
> 3 µM
> 3 µM

Answer for every listed entry: what is its EC50? The entries follow.
1. O=C(O)COc1ccc2c(c1)CCN(Cc1csc(-c3ccc(C(F)(F)F)cc3)n1)CC2
2. Cc1nc(-c2ccc(C(F)(F)F)cc2)sc1CN1CCc2ccc(OCC(=O)O)cc2CC1
3. CC(C)(Oc1ccc2c(c1)CCN(Cc1cc(-c3ccc(C(F)(F)F)cc3)ns1)CC2)C(=O)O

Response:
1. > 3 µM
2. > 3 µM
3. > 3 µM

Source of measurements: patent US8633184B2
